Target: Hepatocyte Growth Factor (HGF), human (human, UniProt P14210 32-728)
Sequence (P14210 32-728): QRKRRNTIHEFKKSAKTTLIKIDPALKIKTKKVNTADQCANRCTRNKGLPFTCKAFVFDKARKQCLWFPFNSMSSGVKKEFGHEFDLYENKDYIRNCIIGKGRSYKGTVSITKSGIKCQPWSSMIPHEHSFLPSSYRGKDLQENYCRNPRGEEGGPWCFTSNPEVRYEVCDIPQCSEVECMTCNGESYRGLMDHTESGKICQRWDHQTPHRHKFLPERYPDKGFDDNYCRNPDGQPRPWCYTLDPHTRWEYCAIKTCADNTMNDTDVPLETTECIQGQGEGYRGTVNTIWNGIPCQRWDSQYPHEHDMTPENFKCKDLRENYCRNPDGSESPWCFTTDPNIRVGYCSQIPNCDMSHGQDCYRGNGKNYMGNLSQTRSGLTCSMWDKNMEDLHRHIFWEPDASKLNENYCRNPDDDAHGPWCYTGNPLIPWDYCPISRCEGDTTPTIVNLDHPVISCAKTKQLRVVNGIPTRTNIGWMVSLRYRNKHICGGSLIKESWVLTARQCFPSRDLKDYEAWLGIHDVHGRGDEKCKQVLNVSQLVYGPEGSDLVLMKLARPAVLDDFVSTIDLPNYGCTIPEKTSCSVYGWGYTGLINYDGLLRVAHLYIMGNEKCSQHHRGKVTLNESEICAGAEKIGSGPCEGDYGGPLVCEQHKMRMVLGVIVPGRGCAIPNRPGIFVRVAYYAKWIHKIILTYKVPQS
Assay: ELISA
MEASURED METRIC: pEC50
Please treat pEC50 as minus the base-10 logarithm of the molar concentration.

Give the measured pEC50 of HC 2/SLC 7 (antibody) chain 1: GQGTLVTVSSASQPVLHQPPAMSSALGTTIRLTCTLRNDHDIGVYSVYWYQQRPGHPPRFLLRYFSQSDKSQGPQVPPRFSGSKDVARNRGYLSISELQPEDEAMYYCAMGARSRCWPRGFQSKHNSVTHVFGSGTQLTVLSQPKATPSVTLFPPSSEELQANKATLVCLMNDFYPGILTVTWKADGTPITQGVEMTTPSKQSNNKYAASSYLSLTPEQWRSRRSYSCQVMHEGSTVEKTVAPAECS chain 2: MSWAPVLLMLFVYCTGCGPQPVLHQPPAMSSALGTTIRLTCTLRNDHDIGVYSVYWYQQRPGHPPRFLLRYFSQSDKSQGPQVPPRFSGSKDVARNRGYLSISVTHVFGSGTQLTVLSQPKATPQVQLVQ .
10.26

Now look at this entry.
Give the measured pEC50 of HC 8/SLC 8 (antibody) chain 1: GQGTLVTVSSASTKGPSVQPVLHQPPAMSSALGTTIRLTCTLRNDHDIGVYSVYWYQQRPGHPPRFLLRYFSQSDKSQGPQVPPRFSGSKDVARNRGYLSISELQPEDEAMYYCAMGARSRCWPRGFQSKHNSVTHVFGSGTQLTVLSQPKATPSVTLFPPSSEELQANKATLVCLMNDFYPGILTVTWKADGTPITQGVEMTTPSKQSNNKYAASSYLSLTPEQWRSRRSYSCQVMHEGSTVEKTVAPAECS chain 2: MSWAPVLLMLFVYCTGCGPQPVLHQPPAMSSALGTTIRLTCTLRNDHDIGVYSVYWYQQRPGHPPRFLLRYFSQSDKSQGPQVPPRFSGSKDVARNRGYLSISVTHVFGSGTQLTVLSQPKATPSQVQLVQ .
10.25

Reference source for all entries: patent US20150045540A1
